Entry source: PubChem BioAssay

# assayProcedure: growth suppression of PTEN-deleted HCT116, pilot screen, cell-based, HCT116 clonal line, CellTiter-Glo (AID 824);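 also: 0% = 20 µM Hyamine control and 100% = vehicle cell control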
# measurementContext: 60 h, at 10 µM, hits give low values
Records with an inconclusive call do not appear.
Binary call on viability with cut-off 90%: strictly below means criterion met, and equality or higher means criterion not met.

Cc1cc2ncn(C(=O)c3c(-c4c(Cl)cccc4Cl)noc3C)c2cc1C : criterion not met

Is 90% strictly greater than the molecule's reported viability? molecule: CCn1c(=O)cc(N2CCC3(CC2)OCCO3)[nH]c1=O
criterion not met

Is 90% strictly greater than the molecule's reported viability? molecule: CCOC(=O)c1ccc(NC(=O)c2nccnc2C(=O)O)cc1
criterion not met

Is 90% strictly greater than the molecule's reported viability? molecule: COc1cc(NC(=O)CN2CC(c3ccccc3)CC2=O)cc(OC)c1 (stereo unspecified)
criterion not met

* * *

Listed molecules paired with reported growth inhibition
# assayProcedure: Restrictive medium S. cerevisiae growth inhibition, OD615, pilot screen of yeast lifespan reduction project, restrictive growth control (AID 706);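 also: modified DeaD lifespan yeast strain shifted to restrictive glucose medium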
# measurementContext: OD615, 48 h, at 10 µM, hits give high values
Enter your answer as a number in %; do not include the unit.

CCCc1n[nH]c2c1C(=O)CC(C)(C)C2 : -9.82
CCc1nc(N(CC)CC)c2oc3ccccc3c2n1 : -35.2
CCn1ccnc1C(O)c1cccc(OC)c1OC (stereo not drawn) : -3.01
COc1ccc(N(CC(=O)NCc2cccnc2)S(=O)(=O)c2c(C)nn(C)c2C)cc1 : -19.4
COc1cc(NC(=O)C2CCCN2C(=O)C2CCC(C)CC2)cc(OC)c1OC (stereo not drawn) : -3.52
O=S(=O)(NC1c2cccc3cccc(c23)C1N1CCNCC1)c1ccccc1 (stereo not drawn) : -14.2
C=CCn1c(-c2ccc(N)cc2)nc2ccccc21 : 3.25
COc1cc(Br)cc(-c2nc3c(c(=O)[nH]c(=O)n3Cc3ccccc3)n2C)c1O : -0.8
CCOC(=O)CSc1ccc2nnc(-c3ccccc3)n2n1 : -9.2
CCOC(=O)c1ccc(N2C(=O)CC(SCC(N)C(=O)OCC)C2=O)cc1 (stereo not drawn) : -7.37

What value of growth inhibition has been reported for the following molecule? O=C(COC(=O)c1ccc(Br)c(S(=O)(=O)N2CCOCC2)c1)NCC1CCCO1 (stereo not drawn)
-5.15

What value of growth inhibition has been reported for the following molecule? COc1cccc(-c2nc(CS(=O)(=O)CC(=O)NCc3ccccc3OC)c(C)o2)c1
2.59

What value of growth inhibition has been reported for the following molecule? O=C(NCCN1CCOCC1)c1ccc(CS(=O)(=O)c2ccc(Br)cc2)o1
-7.27

What value of growth inhibition has been reported for the following molecule? CCOC(=O)C1C(=O)OC2(CCOC(C)(C)C2)C1C(=O)OCC (stereo not drawn)
7.69

* * *

Listed compounds paired with reported growth inhibition
# assayProcedure: OD615 S. cerevisiae growth inhibition, permissive medium, pilot counter-assay, permissive growth control for S. cerevisiae lifespan shortening project (AID 705)
# measurementContext: OD615, 24 h, at 10 µM, hits give high values
Enter your answer as a number in %; do not include the unit.

COC(=O)c1nc2n(n1)C(c1cccc(Cl)c1)C1=C(CCCC1=O)N2 (stereo unspecified) : -4.09
NC(=O)CCc1c[nH]c2ccccc12 : -1.2
CC(C)(C)NC(=O)CSc1nccn1Cc1ccccc1 : -11.7
C=CCn1c(SCCN2CCCCC2)nc2c1c(=O)[nH]c(=O)n2C : -3.65
CCc1cc2c(=O)c(Oc3ccccc3F)c(C)oc2c(CN(C)C)c1O : -5.07
COc1ccccc1N1CSC2=C(C#N)C(c3ccc(SC)cc3)CC(=O)N2C1 (stereo unspecified) : -1.16
Cn1c(C(=O)NCc2ccccn2)cc2c(=O)n(C)c3ccccc3c21 : -1.81
CC1=C(C(=O)Nc2ccccc2)C(c2ccco2)C(C#N)=C(SCc2ccccc2)N1 (stereo unspecified) : 9

What value of growth inhibition has been reported for the following compound? O=C(O)CCCC(=O)N1CCc2cc(S(=O)(=O)N3CCc4ccccc43)ccc21
-2.29

What value of growth inhibition has been reported for the following compound? Nc1ccc(-c2nc3ccccc3[nH]2)cc1
-6.98

What value of growth inhibition has been reported for the following compound? CCOC(=O)c1sc(NC(=O)c2cc(S(=O)(=O)N3CCOCC3)ccc2C)nc1C
-4.69
